percent inhibition of viability values for the molecules below.
system: SNK-6 (IL-2 2.5 ng/mL); assay: percent inhibition of viability; higher = more inhibition; settings: 72 h; 2500 nM

- molecule: "CCn1nnc2c(N3CCOCC3)nc(-c3ccc(NC(=O)Nc4ccc(C(=O)N5CCN(C)CC5)cc4)cc3)nc21 [PKI-402] (max concentration tested 2500 nM)"
  unit_abbreviation: "%"
  percent inhibition of viability: 54.5
- molecule: "O=C(c1cccc(Cl)c1F)N1CCN(Cc2cccc(Nc3nccs3)n2)CC1 [MK-8745] (max concentration tested 2500 nM)"
  unit_abbreviation: "%"
  percent inhibition of viability: 76.6
- molecule: "COc1cc(C(=O)NC2CCN(C)CC2)c(F)cc1Nc1ncc2c(n1)N(C1CCCC1)CC(F)(F)C(=O)N2C [TAK-960] (max concentration tested 2500 nM)"
  unit_abbreviation: "%"
  percent inhibition of viability: 22.1

---

percent inhibition of viability values for the molecules below.
tested on: normal NK cells expanded with K562-aAPC; experiment: percent inhibition of viability; higher = more inhibition; conditions: 72 h; IL-2 2.5 ng/mL; 100 nM

- molecule: "COc1ccc(COc2cc3oc(=O)c4cc(C(C)O)ccc4c3cc2OC)cc1 (stereo not drawn) [Palomid-529] (max concentration tested 10000 nM)"
  percent inhibition of viability: "-4.58%"
- molecule: "COc1cc2c(Oc3ccc(NC(=O)C4(C(=O)Nc5ccc(F)cc5)CC4)cc3F)ccnc2cc1OCCCN1CCOCC1 [Foretinib] (max concentration tested 1000 nM)"
  percent inhibition of viability: "12.6%"
- molecule: "Nc1cccc2c1CN(C1CCC(=O)NC1=O)C2=O (stereo not drawn) [Lenalidomide] (max concentration tested 100000 nM)"
  percent inhibition of viability: "-0.84%"
- molecule: "Cc1ccc(NC(=O)c2ccc(CN3CC[C@H](N(C)C)C3)c(C(F)(F)F)c2)cc1Nc1nccc(-c2cncnc2)n1 [Bafetinib] (max concentration tested 1000 nM)"
  percent inhibition of viability: "2.67%"
- molecule: "COc1ccc(S(=O)(=O)Nc2cccnc2Nc2ccc(O)cc2)cc1 [ABT-751] (max concentration tested 10000 nM)"
  percent inhibition of viability: "3.33%"
- molecule: "Nc1cccc2c1C(=O)N(C1CCC(=O)NC1=O)C2=O (stereo not drawn) [Pomalidomide] (max concentration tested 10000 nM)"
  percent inhibition of viability: "-9.37%"
- molecule: "CC(=O)[C@]1(O)Cc2c(O)c3c(c(O)c2[C@@H](O[C@H]2C[C@H](N)[C@H](O)[C@H](C)O2)C1)C(=O)c1ccccc1C3=O [Idarubicin] (max concentration tested 1000 nM)"
  percent inhibition of viability: "97.4%"
- molecule: "C/C(=C\\c1csc(C)n1)[C@@H]1C[C@@H]2O[C@]2(C)CCC[C@H](C)[C@H](O)[C@@H](C)C(=O)C(C)(C)[C@@H](O)CC(=O)O1 [Patupilone] (max concentration tested 1000 nM)"
  percent inhibition of viability: "57.1%"

---

system: DERL-7 (IL-2 2.5 ng/mL); experiment: drug sensitivity score (DSS) (DSS units); higher = more sensitive; extreme values may be limits of the assay; details: 72 h

- compound: "C[C@@H]1CN(Cc2ccc(F)cc2)[C@@H](C)CN1C(=O)c1cc2c(C(=O)C(=O)N(C)C)cn(C)c2cc1Cl [Talmapimod] (max concentration tested 10000 nM)"
  drug sensitivity score: 0
- compound: "O=C(c1cc(Cc2n[nH]c(=O)c3ccccc23)ccc1F)N1CCN(C(=O)C2CC2)CC1 [Olaparib] (max concentration tested 10000 nM)"
  drug sensitivity score: 1.54
- compound: "N[C@@H]1CCCN(c2c(/C=C3\\SC(=O)NC3=O)cccc2-c2ccccc2)C1 [AZD1208] (max concentration tested 10000 nM)"
  drug sensitivity score: 9.28
- compound: "CCC1=C[C@@H]2CN(C1)Cc1c([nH]c3ccccc13)[C@@](C(=O)OC)(c1cc3c(cc1OC)N(C)[C@H]1[C@@](O)(C(=O)OC)[C@H](OC(C)=O)[C@]4(CC)C=CCN5CC[C@]31[C@@H]54)C2 [Vinorelbine] (max concentration tested 10000 nM)"
  drug sensitivity score: 40.4

---

drug sensitivity score values for the molecules below.
test system: KAI3 (IL-2 2.5 ng/mL); experiment: drug sensitivity score (DSS) (DSS units); higher = more sensitive; extreme values may be limits of the assay; settings: 72 h

- molecule: "CO[C@@H]1[C@H](N(C)C(=O)c2ccccc2)C[C@H]2O[C@]1(C)n1c3ccccc3c3c4c(c5c6ccccc6n2c5c31)C(=O)NC4 [Midostaurin] (max concentration tested 10000 nM)"
  drug sensitivity score: 19.3
- molecule: "COc1ccc(COc2cc3oc(=O)c4cc(C(C)O)ccc4c3cc2OC)cc1 (configuration not stated) [Palomid-529] (max concentration tested 10000 nM)"
  drug sensitivity score: 3.78
- molecule: "O=C(NC1CCNCC1)c1n[nH]cc1NC(=O)c1c(Cl)cccc1Cl [AT7519] (max concentration tested 10000 nM)"
  drug sensitivity score: 16.3
- molecule: "CS(=O)(=O)N1CCc2c(-c3cnc(N)nc3)nc(N3CCOCC3)nc21 (max concentration tested 10000 nM)"
  drug sensitivity score: 7.4
- molecule: "CS(=O)(=O)c1ccc(C2=C(c3ccccc3)C(=O)OC2)cc1 [Rofecoxib] (max concentration tested 10000 nM)"
  drug sensitivity score: 0
- molecule: "CON(C)C(=O)N1N=C(c2cc(F)ccc2F)S[C@@]1(CCCN)c1ccccc1 [ARRY-520] (max concentration tested 1000 nM)"
  drug sensitivity score: 14.6
- molecule: "CCCNC(=O)Nc1ccc(Oc2ncnc3cc(OC)c(OC)cc23)cc1Cl [KRN-633] (max concentration tested 2500 nM)"
  drug sensitivity score: 2.05
- molecule: "CC(C)CC(=O)Nc1n[nH]c2c1CN(C(=O)C1CCN(C)CC1)C2(C)C (max concentration tested 10000 nM)"
  drug sensitivity score: 9.47
- molecule: "CC(C)C[C@H](NC(=O)[C@H](CCc1ccccc1)NC(=O)CN1CCOCC1)C(=O)N[C@@H](Cc1ccccc1)C(=O)N[C@@H](CC(C)C)C(=O)[C@@]1(C)CO1 [Carfilzomib] (max concentration tested 1000 nM)"
  drug sensitivity score: 34.8
- molecule: "Cc1cn(-c2cc(NC(=O)c3ccc(C)c(Nc4nccc(-c5cccnc5)n4)c3)cc(C(F)(F)F)c2)cn1 [Nilotinib] (max concentration tested 10000 nM)"
  drug sensitivity score: 0.95
- molecule: "O=C(CCBr)N1CCN(C(=O)CCBr)CC1 [Pipobroman] (max concentration tested 10000 nM)"
  drug sensitivity score: 0.46
- molecule: "CC(O)(CS(=O)(=O)c1ccc(F)cc1)C(=O)Nc1ccc(C#N)c(C(F)(F)F)c1 (configuration not stated) [Bicalutamide] (max concentration tested 10000 nM)"
  drug sensitivity score: 7.75
- molecule: "CO[C@H]1/C=C\\C=C(/C)C(=O)NC2=CC(=O)C(NCCN(C)C)=C(C[C@@H](C)C[C@H](OC)[C@H](O)[C@@H](C)/C=C(\\C)[C@@H]1OC(N)=O)C2=O [Alvespimycin] (max concentration tested 1000 nM)"
  drug sensitivity score: 15.7
- molecule: "C[C@]12CC[C@H](O)CC1=CC[C@@H]1[C@@H]2CC[C@]2(C)C(c3cccnc3)=CC[C@@H]12 [Abiraterone] (max concentration tested 5000 nM)"
  drug sensitivity score: 1.81
- molecule: "CN1CCN(C2CCN(C(=O)Nc3cc(Oc4ccc(NC(=O)C5(C(=O)Nc6ccc(F)cc6)CC5)c(F)c4)ccn3)CC2)CC1 [Golvatinib] (max concentration tested 2500 nM)"
  drug sensitivity score: 1.75
- molecule: "Cc1c(Cn2c(C)nc3c(C(=O)O)cc(N4CCOCC4)cc32)cccc1C(F)(F)F (max concentration tested 10000 nM)"
  drug sensitivity score: 3.6
- molecule: "CCCCC/C=C/C=C1/C(=O)C=C[C@@H]1C/C=C\\CCCC(=O)O [15D-PGJ2] (max concentration tested 3000 nM)"
  drug sensitivity score: 0.28

---

tested on: KAI3 (IL-2 2.5 ng/mL); test: percent inhibition of viability; higher = more inhibition; details: 72 h; 10 nM
percent inhibition of viability values for the compounds below.
quantity: percent inhibition of viability

- compound: "O=C(NC1CCNCC1)c1n[nH]cc1NC(=O)c1c(Cl)cccc1Cl [AT7519] (max concentration tested 10000 nM)"
  quantity: "percent inhibition of viability"
  reported_value: "-1.69%"
- compound: "O=C(NOCC1CC1)c1ccc(F)c(F)c1Nc1ccc(I)cc1Cl (max concentration tested 10000 nM)"
  quantity: "percent inhibition of viability"
  reported_value: "14.8%"
- compound: "Oc1c2ccccc2c2c3c(cccc13)N=N2 (max concentration tested 100000 nM)"
  quantity: "percent inhibition of viability"
  reported_value: "-1.06%"
- compound: "CC(C)n1nc(-c2ccc3oc(N)nc3c2)c2c(N)ncnc21 [INK128] (max concentration tested 1000 nM)"
  quantity: "percent inhibition of viability"
  reported_value: "24.1%"
